Attribute: POTASSIUM
- Organism: Rattus norvegicus
- ASSAY_OVERVIEW: DrugMatrix - Regimen: Daily Repeat
- Assay type: toxicity, organism-based, Sprague-Dawley
- Design: regimen Daily Repeat, gender Male, age 6-8 weeks
- MEASUREMENT_PARAMETERS: in vivo, po, 0 mg/kg, 120 h, tissue Plasma, route oral GAVAGE, dose level Control, time 5 day, vehicle 100 % WATER
Response body: numeric value in MEQ/L, unit text excluded.

>  <COMPOUND>
NNc1nncc2ccccc12 [HYDRALAZINE]

>  <POTASSIUM [MEQ/L]>
6.29

$$$$
>  <COMPOUND>
CS(=O)(=O)c1ccc([C@@H](O)[C@@H](CO)NC(=O)C(Cl)Cl)cc1

>  <POTASSIUM [MEQ/L]>
6.28

$$$$
>  <COMPOUND>
Cn1c(=O)c2[nH]cnc2n(C)c1=O.O

>  <POTASSIUM [MEQ/L]>
6.4

$$$$

May I ask what POTASSIUM has been recorded for CCN(CC)CCNC(=O)c1cc(S(C)(=O)=O)ccc1OC [TIAPRIDE] ?
6.28

Proceed to Cc1ccc(NC(=O)c2ccc(CN3CCN(C)CC3)cc2)cc1Nc1nccc(-c2cccnc2)n1
6.28

Item: CC(C)(C)CC(C)(C)c1ccc(OCCOCC[N+](C)(C)Cc2ccccc2)cc1.[Cl-] [BENZETHONIUM CHLORIDE]
6.29

Another compound to check: CN(C)CC[C@@H](c1ccc(Cl)cc1)c1ccccn1
6.73

# repeat for CN(C)CCOC(c1ccccc1)c1ccccc1 [DIPHENHYDRAMINE]
6.29

Next record, please: CN1[C@@H]2CC[C@H]1C[C@@H](OC(=O)C(CO)c1ccccc1)C2 (some centres undefined)
5.99
